Target: T1, CCL4L1_HUMAN (Homo sapiens, UniProt Q8NHW4)
T1 sequence (Q8NHW4 24-92): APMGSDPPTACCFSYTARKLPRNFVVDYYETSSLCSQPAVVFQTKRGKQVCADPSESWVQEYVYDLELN
Assay: Biolayer interferometry (BLI) binding
property.label: Kd (nM)
# value in nM; strip the unit string

# molecule, Kd / nM
records = [
    ("P1181_AMBMA: tick CKBP, Amblyomma maculatum (protein, listed as Amblyomma maculatum) EEREDDNDYGGGCPFVVLGNGTHAKPAGCSHLCNGAPETLDNIECYNVTEEVAKRMTPDIPYTCWLGWCSKGECKRDNRTEVCYRGSERE", 35),
]

Request the reported Kd associated with P467_RHIPU: tick CKBP (evasin), Rhipicephalus pulchellus; RPU-01 stated identical (protein, listed as Rhipicephalus pulchellus) AEKSLDSDSSGEDYELWTQGCPFLVAENRTGFGTTVSCQHNCNGAIEKVPEGEPCYTIGEDGLGRMKLNLPYNCSLGECSGGVCVPNGRSDVCFKRTWEENNKAMA 4.72
